- Tested on: Malme-3M
- Assay Notes: Antitumor activity against human MALME-3M cells assessed as cell growth inhibition at 10 uM incubated for 48 hrs by sulforhodamine B assay
- Type: functional
- Experimental Setup: read-out: GI
Measured Property: inhibition of growth at 10 µM

• O=c1[nH]cc(F)c(=O)[nH]1 = 58.2%
• Oc1ccccc1-c1nc2c3ccccc3c3ccccc3c2o1 = < 10%
• CCN(CC)c1ccc(-c2nc3c4ccccc4c4ccccc4c3o2)c(O)c1 = < 10%
• c1cc2ccc3ccc(-c4nc5c6ccccc6c6ccccc6c5[nH]4)c4ccc(c1)c2c34 = < 10%
• O=C1NC(=O)/C(=C/c2ccc(-c3nc4c5ccccc5c5ccccc5c4[nH]3)cc2)S1 = 14.8%
• Oc1ccccc1-c1nc2c3ccccc3c3ccccc3c2[nH]1 = < 10%
• O=Cc1ccc(-c2nc3c([nH]2)-c2cccc4cccc-3c24)cc1 = < 10%
• O=C1c2ccccc2C(=O)c2c1ccc1[nH]c(-c3ccc(-c4nc5c6ccccc6c6ccccc6c5[nH]4)cc3)nc21 = < 10%
• CCN(CC)c1ccc(-c2nc3c4ccccc4c4ccccc4c3[nH]2)c(O)c1 = < 10%

====

- Tested on: MDA-MB-468
- Assay Notes: Antitumor activity against human MDA-MB-468 cells assessed as cell growth inhibition at 10 uM incubated for 48 hrs by sulforhodamine B assay
- Assay type: functional
- Experimental Setup: read-out: GI
Binary call on inhibition of growth at 10 µM: Criterion met from 30% upward, Criterion not met beneath that.

* O=C1NC(=O)/C(=C/c2ccc(-c3nc4c5ccccc5c5ccccc5c4[nH]3)cc2)S1 | Criterion met
* CCN(CC)c1ccc(-c2nc3c4ccccc4c4ccccc4c3[nH]2)c(O)c1 | Criterion not met
* Oc1ccccc1-c1nc2c3ccccc3c3ccccc3c2[nH]1 | Criterion not met
* Oc1ccccc1-c1nc2c3ccccc3c3ccccc3c2o1 | Criterion not met
* c1cc2ccc3ccc(-c4nc5c6ccccc6c6ccccc6c5[nH]4)c4ccc(c1)c2c34 | Criterion met
* O=C1c2ccccc2C(=O)c2c1ccc1[nH]c(-c3ccc(-c4nc5c6ccccc6c6ccccc6c5[nH]4)cc3)nc21 | Criterion not met
* CCN(CC)c1ccc(-c2nc3c4ccccc4c4ccccc4c3o2)c(O)c1 | Criterion not met

====

Reported inhibition of growth at 10 µM values for the following compounds.
- Test system: U-251
- Assay Notes: Antitumor activity against human U251 cells assessed as cell growth inhibition at 10 uM incubated for 48 hrs by sulforhodamine B assay
- Type: functional
- Experimental Setup: read-out: GI
Measured Property: inhibition of growth at 10 µM

• Oc1ccccc1-c1nc2c3ccccc3c3ccccc3c2o1 = 18%
• O=C1c2ccccc2C(=O)c2c1ccc1[nH]c(-c3ccc(-c4nc5c6ccccc6c6ccccc6c5[nH]4)cc3)nc21 = < 10%
• O=c1[nH]cc(F)c(=O)[nH]1 = 50.3%
• O=C1NC(=O)/C(=C/c2ccc(-c3nc4c5ccccc5c5ccccc5c4[nH]3)cc2)S1 = 30.3%
• CCN(CC)c1ccc(-c2nc3c4ccccc4c4ccccc4c3[nH]2)c(O)c1 = < 10%
• Oc1ccccc1-c1nc2c3ccccc3c3ccccc3c2[nH]1 = < 10%

====

- System: 786-0
- Assay Notes: Antitumor activity against human 786-0 cells assessed as cell growth inhibition at 10 uM incubated for 48 hrs by sulforhodamine B assay
- Type: functional
- Experimental Setup: read-out: GI
Measured Property: inhibition of growth at 10 µM

• Oc1ccccc1-c1nc2c3ccccc3c3ccccc3c2o1 = < 10%
• c1cc2ccc3ccc(-c4nc5c6ccccc6c6ccccc6c5[nH]4)c4ccc(c1)c2c34 = < 10%
• O=C1NC(=O)/C(=C/c2ccc(-c3nc4c5ccccc5c5ccccc5c4[nH]3)cc2)S1 = 48%
• CCN(CC)c1ccc(-c2nc3c4ccccc4c4ccccc4c3o2)c(O)c1 = 12.2%
• CCN(CC)c1ccc(-c2nc3c4ccccc4c4ccccc4c3[nH]2)c(O)c1 = < 10%
• O=C1c2ccccc2C(=O)c2c1ccc1[nH]c(-c3ccc(-c4nc5c6ccccc6c6ccccc6c5[nH]4)cc3)nc21 = < 10%
• O=Cc1ccc(-c2nc3c([nH]2)-c2cccc4cccc-3c24)cc1 = < 10%
• Oc1ccccc1-c1nc2c3ccccc3c3ccccc3c2[nH]1 = < 10%
